Biological target: ORAI1/STIM1 (Homo sapiens, UniProt Q13586+Q96D31)
Sequence (Q96D31 whole entry): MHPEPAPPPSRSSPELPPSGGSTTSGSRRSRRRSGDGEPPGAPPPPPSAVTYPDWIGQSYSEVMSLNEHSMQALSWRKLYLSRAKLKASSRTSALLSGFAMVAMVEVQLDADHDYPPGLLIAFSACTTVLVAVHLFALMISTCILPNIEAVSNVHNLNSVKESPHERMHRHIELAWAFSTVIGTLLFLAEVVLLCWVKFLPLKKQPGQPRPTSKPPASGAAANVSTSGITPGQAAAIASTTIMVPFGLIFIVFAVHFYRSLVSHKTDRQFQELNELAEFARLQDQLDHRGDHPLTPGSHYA
Sequence (Q13586 whole entry): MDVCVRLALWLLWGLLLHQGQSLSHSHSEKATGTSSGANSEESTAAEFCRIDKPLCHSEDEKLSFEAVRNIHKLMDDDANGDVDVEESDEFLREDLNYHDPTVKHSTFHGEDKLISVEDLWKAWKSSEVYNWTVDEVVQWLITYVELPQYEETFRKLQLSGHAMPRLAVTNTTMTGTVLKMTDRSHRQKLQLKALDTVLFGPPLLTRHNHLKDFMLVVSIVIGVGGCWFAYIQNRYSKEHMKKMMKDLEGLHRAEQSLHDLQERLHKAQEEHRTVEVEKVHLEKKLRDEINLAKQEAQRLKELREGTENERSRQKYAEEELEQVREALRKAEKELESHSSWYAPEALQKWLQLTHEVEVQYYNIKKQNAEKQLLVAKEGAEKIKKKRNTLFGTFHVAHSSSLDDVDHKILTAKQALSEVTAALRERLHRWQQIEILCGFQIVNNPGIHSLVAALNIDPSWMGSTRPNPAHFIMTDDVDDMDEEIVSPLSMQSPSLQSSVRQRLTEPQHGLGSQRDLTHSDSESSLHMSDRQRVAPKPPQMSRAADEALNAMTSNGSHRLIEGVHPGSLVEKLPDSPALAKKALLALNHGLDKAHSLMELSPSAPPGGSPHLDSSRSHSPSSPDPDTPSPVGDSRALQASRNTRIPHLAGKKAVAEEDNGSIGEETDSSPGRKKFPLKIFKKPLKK
Test: Inhibition of STIM1/Orai1 (unknown origin) expressed in HEK293 cells assessed as reduction in tBHQ-induced calcium response
Assay type: cell-based
pIC50: −log10 of the molar value.
Attribute measured: pIC50

[I] COc1cccc(-c2ccc(-c3cn(-c4cccc(C(=O)O)c4)nn3)cc2)c1OC
[II] COc1ccc(OC)c(-c2ccc(NC(=O)c3ccncc3F)cc2)c1
[III] COc1ccc(OC)c(-c2ccc(-c3cn(-c4cccc(C(=O)O)c4)nn3)cc2)c1
QUERY: Order these by pIC50, descending, and give the full ranking. Labels, ranked as asked.
RESULT: II, I, III

[P] COc1ccc(F)c(-c2ccc(-c3cn(-c4cccc(C(=O)O)c4)nn3)cc2)c1
[Q] COc1ccc(F)c(-c2ccc(-n3cc(-c4cccc(C(=O)O)c4)nn3)cc2)c1
[R] O=C(O)c1cccc(-c2cn(-c3ccc(-c4cccc5c4OCCO5)cc3)nn2)c1
QUERY: Order the items by recorded pIC50; the first position goes to the largest value. Labels, ranked as asked.
RESULT: Q, P, R
